Biological target: Sodium-dependent serotonin transporter (Rattus norvegicus, UniProt P31652);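 note: radioligand competition using [3H]citalopram bound to serotonin transporter in Sprague-Dawley rat brain tissue, 1 h incubation, bound radioactivity quantified by liquid scintillation counting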
Sequence (P31652 whole entry): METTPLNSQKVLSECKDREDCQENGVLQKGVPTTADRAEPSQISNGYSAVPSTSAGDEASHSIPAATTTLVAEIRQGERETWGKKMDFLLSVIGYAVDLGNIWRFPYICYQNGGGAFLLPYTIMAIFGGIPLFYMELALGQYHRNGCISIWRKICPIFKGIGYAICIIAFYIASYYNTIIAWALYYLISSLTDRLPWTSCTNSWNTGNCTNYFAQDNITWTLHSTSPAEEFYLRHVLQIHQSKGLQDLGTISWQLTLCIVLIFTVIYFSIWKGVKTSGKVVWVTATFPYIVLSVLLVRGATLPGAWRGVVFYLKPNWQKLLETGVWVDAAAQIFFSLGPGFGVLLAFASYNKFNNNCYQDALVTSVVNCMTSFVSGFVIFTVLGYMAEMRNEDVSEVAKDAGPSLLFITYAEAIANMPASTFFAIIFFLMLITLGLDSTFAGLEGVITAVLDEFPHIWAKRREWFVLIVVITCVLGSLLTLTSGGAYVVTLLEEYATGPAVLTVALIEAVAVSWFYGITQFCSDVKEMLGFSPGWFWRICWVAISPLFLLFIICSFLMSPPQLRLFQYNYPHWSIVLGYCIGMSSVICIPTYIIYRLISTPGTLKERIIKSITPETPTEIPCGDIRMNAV
pKi: −log10 of the molar value.
OUTCOME MEASURE: pKi

> print(dat)
                                  cpd.smiles  outcome.measure  experimental.result
 1  COc1ccc(COC(=O)C2(c3ccc(Cl)c(Cl)c3)CCN(C)CC2)cc1              pKi                 8.77
 2  O=C(OCc1ccc(Cl)c(Cl)c1)C1(c2ccc(I)cc2)CCNCC1              pKi                 8.23
 3  CN1CCC(C(=O)OCc2ccc([N+](=O)[O-])cc2)(c2ccc(Cl)c(Cl)c2)CC1              pKi                 9.00
 4  O=C(OCc1ccc(C(F)(F)F)cc1)C1(c2ccc(Cl)c(Cl)c2)CCNCC1              pKi                 7.33
 5  CN1CCC(C(=O)OCc2ccccc2)(c2ccc(Cl)c(Cl)c2)CC1              pKi                 8.41
 6  COc1ccc(COC(=O)C2(c3ccc(Cl)c(Cl)c3)CCNCC2)cc1              pKi                 7.99
 7  COc1ccc(COC(=O)C2(c3ccc(I)cc3)CCNCC2)cc1              pKi                 9.22
 8             CCOC(=O)C1(c2ccc(I)cc2)CCNCC1              pKi                 8.60
 9  CN1CCC(C(=O)OCc2ccc(Br)cc2)(c2ccc(Cl)c(Cl)c2)CC1              pKi                 8.15
10  O=C(OCc1ccc([N+](=O)[O-])cc1)C1(c2ccc(I)cc2)CCNCC1              pKi                 8.23
11  O=C(OCc1ccccc1)C1(c2ccc(Cl)c(Cl)c2)CCNCC1              pKi                 8.04
12  CN1CCC(C(=O)OCc2ccc(-c3ccccc3)cc2)(c2ccc(Cl)c(Cl)c2)CC1              pKi                 7.96
13     CCOC(=O)C1(c2ccc(-c3ccccc3)cc2)CCNCC1              pKi                 8.48
14  COc1ccc(COC(=O)C2(c3ccc4ccccc4c3)CCNCC2)cc1              pKi                 8.54
15        CCOC(=O)C1(c2ccc(Cl)c(Cl)c2)CCNCC1              pKi                 7.67
16  CN1CCC(C(=O)OCc2ccc(I)cc2)(c2ccc(Cl)c(Cl)c2)CC1              pKi                 7.88
17  O=C(OCc1ccc([N+](=O)[O-])cc1)C1(c2ccc3ccccc3c2)CCNCC1              pKi                 8.70
18          CCOC(=O)C1(c2ccc3ccccc3c2)CCNCC1              pKi                 7.85
19  O=C(OCc1ccc(Cl)c(Cl)c1)C1(c2ccc(Cl)c(Cl)c2)CCNCC1              pKi                 7.52
20  O=C(OCc1ccc(Cl)c(Cl)c1)C1(c2ccc3ccccc3c2)CCNCC1              pKi                 7.58
21  CN1CCC(C(=O)OCc2ccc(Cl)c(Cl)c2)(c2ccc(Cl)c(Cl)c2)CC1              pKi                 8.37
22  O=C(OCc1ccc([N+](=O)[O-])cc1)C1(c2ccc(Cl)c(Cl)c2)CCNCC1              pKi                 8.19
23  O=C(OCc1ccccc1)C1(c2ccc(-c3ccccc3)cc2)CCNCC1              pKi                 8.70
24  CN1CCC(C(=O)OCc2ccc3ccccc3c2)(c2ccc(Cl)c(Cl)c2)CC1              pKi                 8.00
25  CN1CCC(C(=O)OCc2ccccc2)(c2ccc(-c3ccccc3)cc2)CC1              pKi                 7.31
